Each entry below lists one item and its recorded EC50 value.
- target.desc: CfEcR-DEF mutant L132V (Choristoneura fumiferana, UniProt O77255, L415V)
- Sequence (O77255 entry or part of it L415V): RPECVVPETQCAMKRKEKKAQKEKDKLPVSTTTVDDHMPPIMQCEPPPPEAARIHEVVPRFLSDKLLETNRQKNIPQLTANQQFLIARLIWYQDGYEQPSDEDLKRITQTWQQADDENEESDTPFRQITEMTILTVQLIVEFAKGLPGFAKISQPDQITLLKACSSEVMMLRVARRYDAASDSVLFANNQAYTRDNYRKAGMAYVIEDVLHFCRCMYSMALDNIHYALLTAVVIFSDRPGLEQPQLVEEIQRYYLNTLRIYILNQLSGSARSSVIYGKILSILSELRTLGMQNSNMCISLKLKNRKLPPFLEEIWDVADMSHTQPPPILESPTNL
- Sequence (P28702 298-449, further chain): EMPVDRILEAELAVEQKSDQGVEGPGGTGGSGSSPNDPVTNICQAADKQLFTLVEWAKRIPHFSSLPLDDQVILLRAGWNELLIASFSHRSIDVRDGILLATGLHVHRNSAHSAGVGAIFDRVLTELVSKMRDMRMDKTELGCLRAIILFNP
- test: cell-based
- applied.conditions: mutant L132V; read-out: EC50

compound	EC50
CC(C)(O)CC[C@@H](O)[C@](C)(O)[C@H]1CC[C@@]2(O)C3=CC(=O)[C@@H]4C[C@@H](O)[C@@H](O)C[C@]4(C)[C@H]3CC[C@]12C [20E, 20-hydroxyecdysone]	> 33 µM

Then there is this compound:
# compound CC(C)CC[C@@H](O)[C@](C)(O)[C@H]1CC[C@@]2(O)C3=CC(=O)[C@@H]4C[C@@H](O)[C@@H](O)C[C@]4(C)[C@H]3CC[C@]12C ; its EC50 = 6.56 µM

Provenance of the data: patent US9163256B2
